Measured IC50 by item
Molecular target: menin protein (Homo sapiens (Human))
Sequence (O00255 whole entry): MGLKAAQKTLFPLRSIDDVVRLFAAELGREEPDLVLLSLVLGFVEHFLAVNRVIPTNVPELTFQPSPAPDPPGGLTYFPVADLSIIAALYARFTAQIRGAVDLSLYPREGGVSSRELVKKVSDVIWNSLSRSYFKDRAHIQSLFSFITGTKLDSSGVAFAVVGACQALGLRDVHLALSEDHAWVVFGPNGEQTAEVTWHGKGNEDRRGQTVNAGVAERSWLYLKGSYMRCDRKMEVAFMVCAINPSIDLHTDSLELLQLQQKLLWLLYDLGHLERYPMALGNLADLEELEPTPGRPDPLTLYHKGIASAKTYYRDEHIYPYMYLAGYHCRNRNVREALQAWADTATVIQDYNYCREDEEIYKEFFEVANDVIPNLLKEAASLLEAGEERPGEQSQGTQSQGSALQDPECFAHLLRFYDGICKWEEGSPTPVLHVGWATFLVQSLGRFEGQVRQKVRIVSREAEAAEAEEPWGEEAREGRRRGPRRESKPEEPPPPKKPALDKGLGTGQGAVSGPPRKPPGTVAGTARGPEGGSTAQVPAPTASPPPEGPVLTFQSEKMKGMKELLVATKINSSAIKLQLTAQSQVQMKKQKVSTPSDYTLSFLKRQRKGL
Assay: biochemical
Assay type: binding
Conditions: FP competitive binding; menin protein 4 nM, FAM-MM2 probe 2 nM; read-out: Menin Binding Affinity IC50
Output spec: scalar in µM, unitless text.

The following compounds have reported results that may help.
CCS(=O)(=O)c1ccc(N2CC(CN3CCC(C4(CC(C)(C)C)NCCc5ccccc54)CC3)C2)cc1 (stereo not drawn)	0.8
CC(=O)NCC(c1ccccc1)(C1CCCC1)C1CCN(CCCOc2ccc(C#N)cc2)CC1 (stereo not drawn)	0.817

Item: N#Cc1ccc(OCCCN2CC=C(C3(C4CCCC4)NCCc4ccccc43)CC2)cc1 (stereo not drawn) | IC50: 0.7

====

Molecular target: menin protein (Homo sapiens (Human))
Assay: biochemical
Type: binding
Details: FP competitive binding; menin protein 4 nM, FAM-MM2 probe 2 nM; read-out: Menin Binding Affinity IC50
metric.name: pIC50
Kindly note that pIC50 refers to -log10 of the concentration in mol/L and answer with the value alone.

The following molecules have reported results that may help.
CNC(=O)O[C@@H]1CCC[C@H]1C(C#N)(c1ccccc1)C1CCN(CC2CN(c3ccc(S(=O)(=O)C4CC4)cc3)C2)CC1 (mixture of isomers)	6.30
CC(=O)O[C@@H]1CCC[C@H]1C(C#N)(c1ccccc1F)C1CCN(CCCOc2ccc(C#N)cc2)CC1 (mixture of isomers)	4.94
c1ccc2c(c1)CCNC2(CC1CCNCC1)C1CCCC1 (centres unmarked)	3.52
N#Cc1ccc(N2CC(CN3CCC(C4(C5CCCC5)NCCc5ccccc54)CC3)C2)cn1 (centres unmarked)	6.08
N#Cc1ccc(OCCCN2CCC(C3(C4CCCC4)CNCc4ccccc43)CC2)cc1 (centres unmarked)	7.21

Item: Cc1nccn1CC(c1ccccc1)(C1CCCC1)C1CCN(CC2CN(c3ccc(S(=O)(=O)C4CC4)cc3)C2)CC1 (centres unmarked) | pIC50: 7.54

Item: O=S(=O)(c1ccncc1)c1ccc(N2CC(CN3CCC(C4(C5CCCC5)CN(CC5COC5)Cc5ccccc54)CC3)C2)cc1 (centres unmarked) | pIC50: 7.60

Item: c1ccc(CN2CCC(C3(C4CCCC4)NCCc4ccccc43)CC2)cc1 (centres unmarked) | pIC50: 3.72

====

Test: Cell growth inhibition, CellTiter-Glo Luminescent Cell Viability Assay
Assay type: cell-based
Settings: MOLM-13, 96 h, read-out: Cell Growth Inhibition IC50 (μM) MOLM13, MOLM13 cells, 4 days, CellTiter-Glo
metric.name: IC50 (µM)
Output spec: scalar in µM, unitless text.

COC(=O)N[C@H]1CCC[C@@H]1C(C#N)(c1ccccc1)C1CCN(CC2CN(c3ccc(S(=O)(=O)c4ccc(F)cc4)cc3)C2)CC1 (mixture of isomers) [compound 394]	1.94
CNC(=O)O[C@H]1CCC[C@@H]1C(Cn1ccnc1C)(c1ccccc1)C1CCN(CC2CN(c3ccc(C#N)cc3)C2)CC1 (mixture of isomers) [compound 406]	0.009
CCN1Cc2ccccc2C(C2CCN(CC3CN(c4ccc(S(=O)(=O)c5ccn(C)c5)cc4)C3)CC2)([C@H]2CCC[C@@H]2NC(=O)NC)C1 (mixture of isomers) [compound 375]	1.73
CNC(=O)O[C@H]1CCC[C@@H]1C(C#N)(c1ccccc1)C1CCN(CC2CN(c3ccc(S(=O)(=O)c4nn(C)cc4Br)cc3)C2)CC1 (mixture of isomers) [compound 228]	0.25

Item: CC(=O)N[C@H]1CCC[C@@H]1C(Cn1ccnc1)(c1ccccc1)C1CCN(CC2CN(c3ccc(S(=O)(=O)c4ccccc4)cc3)C2)CC1 (mixture of isomers) [compound 381] | IC50: 0.67

Item: CNC(=O)N[C@H]1CCC[C@@H]1C(C#N)(c1ccccc1)C1CCN(CC2CN(c3ccc(S(=O)(=O)c4ccncc4)cc3)C2)CC1 (mixture of isomers) [compound 269] | IC50: 1.73

Item: CNC(=O)O[C@H]1CCC[C@@H]1C(Cn1ccnc1)(c1cccc(F)c1)C1CCN(CC2CN(c3ccc(C#N)cc3)C2)CC1 (mixture of isomers) [compound 390] | IC50: 0.082

Item: COC(=O)N[C@H]1CCC[C@@H]1C(C#N)(c1ccccc1)C1CCN(CC2CN(c3ccc(S(=O)(=O)C(F)(F)F)cc3)C2)CC1 (mixture of isomers) [compound 393] | IC50: 0.88

Item: N#CC(c1ccccc1)(C1CCN(CC2CN(c3ccc(S(=O)(=O)c4ccccc4)cc3)C2)CC1)[C@H]1CCC[C@@H]1OC(N)=O (mixture of isomers) [compound 223] | IC50: 0.49

Item: CCc1nccn1CC(c1ccccc1)(C1CCN(CC2CN(c3ccc(C#N)cc3)C2)CC1)[C@H]1CCC[C@@H]1OC(=O)NC (mixture of isomers) [compound 408] | IC50: 0.017
